Tested on: E coli carrying specific resistance determinants
Method Description: MIC by broth microdilution, E coli carrying specific resistance determinants
Type: cell-based
Measurement Conditions: Escherichia coli, read-out: MIC E. coli AAC(2′) pH434
Where a name gives a salt, the structure may show the parent alone.
Measured Property: MIC (µg/mL)
Give bare numbers, in µg/mL.

Hey, can you go through the list below and give me MIC for every item?
1. NCC1OC(OC2C(CO)OC(OC3C(O)C(N)CC(N)C3OC3OC(CN)C(O)C(O)C3O)C2O)C(N)C(O)C1O (stereo not drawn)
2. CCNC1C(OC2C(N)CC(N)C(O)C2OC2OC(CO)C(OC3OC(CN)C(O)C(O)C3N)C2O)OC(CO)C(O)C1O (stereo not drawn)
3. CNC1C(OC2C(N)CC(N)C(O)C2OC2OC(CO)C(OC3OC(CN)C(O)C(O)C3N)C2O)OC(CN)C(O)C1O (stereo not drawn) [Compound 171, 2′-N-Methyl-neomycin acetate salt]

1. 4
2. 4
3. 4

Provide only the value of recorded MIC for NCC1OC(OC2C(N)CC(N)C(O)C2OC2OC(CO)C(OC3OC(CN)C(O)C(O)C3N)C2O)CC(O)C1O (stereo not drawn) [Compound 173, 2′-Deamino-neomycin acetate salt] 8

###

Tested on: E coli wild type
Method Description: MIC by broth microdilution, wild type E coli
Assay type: cell-based
Measurement Conditions: Escherichia coli, clinical isolate AG055; Table 1 (Example 3); read-out: MIC E coli AG055
Structures can show the parent of a compound that is named as a salt.
Assignment: determine reported MIC for the given molecules.
One number for each entry, in µg/mL.

CNC1C(OC2C(N)CC(N)C(O)C2OC2OC(CO)C(OC3OC(CN)C(O)C(O)C3N)C2O)OC(CN)C(O)C1O (stereo not drawn) [Compound 171, 2′-N-Methyl-neomycin acetate salt]; 1

Hey, can you go through the list below and give me MIC for every item?
1. CCCNC1C(OC2C(N)CC(N)C(O)C2OC2OC(CO)C(OC3OC(CN)C(O)C(O)C3N)C2O)OC(CO)C(O)C1O (stereo not drawn) [Compound 128, 2′-N-Propyl-paromomycin acetate salt]
2. CNC1C(OC2C(N)CC(N)C(O)C2OC2OC(CO)C(OC3OC(CN)C(O)C(O)C3N)C2O)OC(CO)C(O)C1O (stereo not drawn) [Compound 115, 2′-N-Methyl-paromomycin acetate salt]
3. CCNC1C(OC2C(N)CC(N)C(O)C2OC2OC(CO)C(OC3OC(CN)C(O)C(O)C3N)C2O)OC(CN)C(O)C1O (stereo not drawn) [Compound 172, 2′-N-Ethyl-neomycin acetate salt]
4. CCNC1C(OC2C(N)CC(N)C(O)C2OC2OC(CO)C(OC3OC(CN)C(O)C(O)C3N)C2O)OC(CO)C(O)C1O (stereo not drawn)

1. 16
2. 16
3. 1
4. 16

###

Assignment: determine reported MIC50 P aeruginosa AG31 for the given molecules.
Tested on: P aeruginosa
Method Description: MIC by broth microdilution, P aeruginosa isolates
Assay type: cell-based, Pseudomonas aeruginosa
Measurement Conditions: strain AG31; Table 1 (Example 2)

Some molecules with known MIC50 P aeruginosa AG31 results, for comparison:
CCCC(O)C1OC(OC2C(N)CC(N)C(O)C2OC2OC(CO)C(OC3OC(CN)C(O)C(O)C3N)C2O)C(N)C(O)C1O (stereo not drawn) [Compound 142]; >128 µg/mL
CC1CC(N)C2O[C@H](O[C@@H]3C(N)C[C@@H](N)C(O)[C@H]3O[C@@H]3O[C@H](CO)[C@H](O[C@H]4O[C@@H](CN)[C@@H](O)C(O)C4N)C3O)C(N)[C@@H](O)[C@@H]2O1 (stereo partly drawn) [Compound 139]; 32 µg/mL

Provide only the value of recorded MIC50 P aeruginosa AG31 for CC(N)C1OC(OC2C(N)CC(N)C(O)C2OC2OC(CO)C(OC3OC(CN)C(O)C(O)C3N)C2O)C(N)C(O)C1O (stereo not drawn) [Compound 166] ≥128 µg/mL

###

Tested on: P aeruginosa
Method Description: MIC by broth microdilution, P aeruginosa isolates
Type: cell-based, Pseudomonas aeruginosa
Measurement Conditions: strain AG32; Table 1 (Example 2)
Assignment: determine reported MIC50 P aeruginosa AG32 for the given molecules.

Some molecules with known MIC50 P aeruginosa AG32 results, for comparison:
CCCC(O)C1OC(OC2C(N)CC(N)C(O)C2OC2OC(CO)C(OC3OC(CN)C(O)C(O)C3N)C2O)C(N)C(O)C1O (stereo not shown) [Compound 143]; >64 µg/mL
CC(N)C1OC(OC2C(N)CC(N)C(O)C2OC2OC(CO)C(OC3OC(CN)C(O)C(O)C3N)C2O)C(N)C(O)C1O (stereo not shown) [Compound 166]; 128 µg/mL
NC[C@@H]1O[C@H](O[C@H]2[C@@H](O)[C@H](O[C@@H]3[C@@H](O)[C@H](N)C[C@H](N)[C@H]3O[C@H]3O[C@H](CN)[C@@H](O)[C@H](O)[C@H]3N)O[C@@H]2CO)[C@H](N)[C@@H](O)[C@@H]1O [neomycin, Neomycin B, reference compound]; 32 to 64 µg/mL

Now for a further molecule.
Give measured MIC50 P aeruginosa AG32 for NC[C@@H]1O[C@H](O[C@H]2[C@@H](O)[C@H](O[C@@H]3[C@@H](O)[C@H](N)C[C@H](N)[C@H]3O[C@H]3O[C@H](CO)[C@@H](O)[C@H](O)[C@H]3N)O[C@@H]2CO)[C@H](N)[C@@H](O)[C@@H]1O [paromomycin, reference compound] (P aeruginosa). >128 µg/mL

###

Test system: mitochondrial ribosome (human chimeric)
Assay type: biochemical
Measurement Conditions: mitochondrial; Table 3 (Example 1); read-out: IC50 Mit
Where a name gives a salt, the structure may show the parent alone.
Consider the cut-off 100 µM. If the recorded IC50 is strictly smaller, the label is true (1); if not, the label is false (0).

Hi there! Is IC50 for NC[C@@H]1O[C@H](O[C@H]2[C@@H](O)[C@H](O[C@@H]3[C@@H](O)[C@H](N)C[C@H](N)[C@H]3O[C@H]3O[C@H](CN)[C@@H](O)[C@H](O)[C@H]3N)O[C@@H]2CO)[C@H](N)[C@@H](O)[C@@H]1O [neomycin, Neomycin B, reference compound] below 100 µM, do you know? true (1)

Hi there! Is IC50 for NC[C@H]1O[C@H](O[C@H]2[C@H](O[C@@H]3O[C@H](CO)[C@@H](O)[C@H]3O)[C@@H](O)[C@H](N)C[C@@H]2N)[C@H](N)[C@@H](O)[C@@H]1O [Ribostamycin, ribostamycin, reference compound] below 100 µM, do you know? false (0)

Hi there! Is IC50 for NCC1OC(OC2C(N)CC(N)C(O)C2OC2OC(CNC=O)C(O)C2O)C(N)C(O)C1O (centres unmarked) below 100 µM, do you know? false (0)

Hi there! Is IC50 for NC[C@H]1O[C@H](O[C@H]2[C@H](O[C@@H]3O[C@H](CO)[C@@H](O)[C@H]3O)[C@@H](O)[C@H](N)C[C@@H]2N)[C@H](N)C[C@@H]1O below 100 µM, do you know? false (0)

Hi there! Is IC50 for NC[C@@H]1O[C@H](O[C@H]2[C@@H](O)[C@H](O[C@@H]3[C@@H](O)[C@H](N)C[C@H](N)[C@H]3O[C@H]3O[C@H](CN)[C@@H](O)C[C@H]3N)O[C@@H]2CO)[C@H](N)[C@@H](O)[C@@H]1O below 100 µM, do you know? true (1)

Hi there! Is IC50 for NCC1OC(OC2C(CNC=O)OC(OC3C(O)C(N)CC(N)C3OC3OC(CO)C(O)CC3N)C2O)C(N)C(O)C1O (centres unmarked) below 100 µM, do you know? false (0)

Hi there! Is IC50 for NC[C@@H]1O[C@H](O[C@@H]2C(O)[C@H](O[C@@H]3C(O)[C@H](N)CC(N)[C@H]3O[C@H]3OC(CO)[C@@H](O)[C@H](O)C3N)O[C@@H]2CNC=O)C(N)C(O)[C@@H]1O (some centres unmarked) [Compound 137, acetate salt] below 100 µM, do you know? false (0)

Hi there! Is IC50 for NC[C@@H]1O[C@H](O[C@H]2[C@@H](O)[C@H](O[C@@H]3[C@@H](O)[C@H](N)C[C@H](N)[C@H]3O[C@H]3O[C@H](CO)[C@@H](O)[C@H](O)[C@H]3N)O[C@@H]2CO)[C@H](N)[C@@H](O)[C@@H]1O [paromomycin, reference compound] below 100 µM, do you know? false (0)

###

Assignment: determine reported MIC for the given molecules.
Tested on: MRSA
Method Description: MIC by broth microdilution, MRSA isolates
Type: cell-based
Measurement Conditions: Staphylococcus aureus, MRSA; clinical isolate AG038; Table 1 (Example 3); read-out: MIC MRSA AG038
Where a name gives a salt, the structure may show the parent alone.
One number for each entry, in µg/mL.

Hey, can you go through the list below and give me MIC for every item?
1. NC[C@@H]1O[C@H](O[C@H]2[C@@H](O)[C@H](O[C@@H]3[C@@H](O)[C@H](N)C[C@H](N)[C@H]3O[C@H]3O[C@H](CO)[C@@H](O)[C@H](O)[C@H]3N)O[C@@H]2CO)[C@H](N)[C@@H](O)[C@@H]1O [paromomycin, reference compound]
2. CNC1C(OC2C(N)CC(N)C(O)C2OC2OC(CO)C(OC3OC(CN)C(O)C(O)C3N)C2O)OC(CO)C(O)C1O (stereo not drawn) [Compound 115, 2′-N-Methyl-paromomycin acetate salt]

1: 4; 2: 8

Cited source for all entries: patent US11466044B2
